System: Pseudomonas SSC 78-13
ASSAY_DETAILS: in vitro agar dilution test (MIC)
Type: cell-based
CONDITION_CONTEXT: SSC7813, Mueller-Hinton agar
MIC listing for selected compounds.
ENDPOINT: MIC (µg/mL)

COMPOUND | BOUND_SIGN | REPORTED_MEASUREMENT
CO/N=C(\C(=O)N[C@@H]1C(=O)N2C(C(=O)O)=C(CSc3nnsc3-c3ccccc3)CS[C@H]12)c1csc(N)n1 | = | 128
CO/N=C(\C(=O)N[C@@H]1C(=O)N2C(C(=O)O)=C(COC(C)=O)CS[C@H]12)c1csc(N)n1 [Cefotaxime, reference compound] | = | 32
CO/N=C(\C(=O)N[C@@H]1C(=O)N2C(C(=O)O)=C(CSc3nnsc3C(C)(C)C)CS[C@H]12)c1csc(N)n1 | = | 64
CO/N=C(\C(=O)N[C@@H]1C(=O)N2C(C(=O)O)=C(CSc3nnsc3-c3ccc(C(C)(C)C)cc3)CS[C@H]12)c1csc(N)n1 | > | 256

----------
System: Staphylococcus Smith
ASSAY_DETAILS: in vitro agar dilution test (MIC)
Format: cell-based
CONDITION_CONTEXT: Staphylococcus, Mueller-Hinton agar, Table I, read-out: MIC

COMPOUND | MIC, µg/mL
CO/N=C(\C(=O)N[C@@H]1C(=O)N2C(C(=O)O)=C(CSc3nnsc3-c3ccc(C(C)(C)C)cc3)CS[C@H]12)c1csc(N)n1 [Example 2] | 8
CO/N=C(\C(=O)N[C@@H]1C(=O)N2C(C(=O)O)=C(COC(C)=O)CS[C@H]12)c1csc(N)n1 [Cefotaxime, reference compound] | 1
CO/N=C(\C(=O)N[C@@H]1C(=O)N2C(C(=O)O)=C(CSc3nnsc3-c3ccccc3)CS[C@H]12)c1csc(N)n1 [Example 1] | 1
CO/N=C(\C(=O)N[C@@H]1C(=O)N2C(C(=O)O)=C(CSc3nnsc3C(C)(C)C)CS[C@H]12)c1csc(N)n1 [Example 6] | 2

----------
System: Escherichia coli No. 311 N.A.
ASSAY_DETAILS: in vitro agar dilution test (MIC)
Assay type: cell-based
CONDITION_CONTEXT: Mueller-Hinton agar
ENDPOINT: MIC (µg/mL)

COMPOUND | TARGET_OF_ASSAY | ENDPOINT | MEASUREMENT_UNIT | REPORTED_MEASUREMENT
CCc1snnc1SCC1=C(C(=O)O)N2C(=O)[C@@H](NC(=O)Cc3cccs3)[C@H]2SC1 | Escherichia coli No. 311 N.A. | MIC | µg/mL | 64
Cc1snnc1SCC1=C(C(=O)O)N2C(=O)[C@@H](NC(=O)Cc3cccs3)[C@H]2SC1 | Escherichia coli No. 311 N.A. | MIC | µg/mL | 32
CC(=O)OCC1=C(C(=O)O)N2C(=O)[C@@H](NC(=O)Cc3cccs3)[C@H]2SC1 [Cephalothin, reference compound] | Escherichia coli No. 311 N.A. | MIC | µg/mL | 8
CC1(C)S[C@@H]2[C@H](NC(=O)[C@H](N)c3ccccc3)C(=O)N2[C@H]1C(=O)O [Ampicillin, reference compound] | Escherichia coli No. 311 N.A. | MIC | µg/mL | 2
